Measured Total Cell Count accompanies every entry in the list below.
Tested on: Fibroblast
Assay: Multiplex assay against human fibroblast
Assay type: toxicity, cell-based
Details: 12 h, 10 µM, compound concentration 10 uM, replicate 1
Just the number, please, no unit attached.

>>> print(df.to_string())
                                querysmiles         valuetype  number
0  C=CCn1c(=O)c2cnc(Nc3ccc(N4CCN(C)CC4)cc3)nc2n1-c1cccc(C(C)(C)O)n1  Total Cell Count     218
1  CCn1cc(-c2ccnc3[nH]c(-c4cccc(CN(C)C)c4)cc23)c(-c2ccc(NC(=O)N(C)C)cc2)n1  Total Cell Count     473
2  Cl.O=c1c2cccn2c2ccccc2n1CCCN1CCC(c2ccc(Cl)cc2)CC1  Total Cell Count     175

Here's the next entry for you.
Exercise: Give the reported Total Cell Count for Cc1ccc(C(=O)Nc2cccc(C(F)(F)F)c2)cc1Nc1nc(-c2cccnc2)nc2c1cnn2C (system: Fibroblast).
Key: 121
